biological target: KRasG12C (M1-K169, biotinylated on the N-terminus) (Homo sapiens (Human), UniProt P01116, G12C); assay: Covalent competition assay: scintillation proximity assay (SPA) quantifying covalent modification of KRASG12C; settings: competition with radiolabeled covalent probe (Compound B/Compound A), 2 hours incubation, 10 nM KRasG12C
Documented log10 of IC50 across a set of molecules
// do not treat as linear: log10 of IC50, unit µM

- Molecule: "C=CC(=O)N1CC2(CC(n3nc(N4CC[C@@H](CN5CC6(CCN(C7COC7)C6)C5)CC4(C)C)c(-c4c(Cl)c(Cl)cc5[nH]ncc45)c3C)C2)C1 (single isomer, unassigned) [Example 267a]"
  log10 of IC50: -0.14
- Molecule: "C=CC(=O)N1CC2(CC(n3nc(N4CCN(CCOC)CC45CCC5)c(-c4c(Cl)c(Cl)cc5[nH]ncc45)c3C)C2)C1 (single isomer, unassigned) [Example 76b]"
  log10 of IC50: -2.00
- Molecule: "C=CC(=O)N1CC2(CC(n3nc(N4CCN(C5COC5)CC45CCOC5)c(-c4c(Cl)c(C)cc5[nH]ncc45)c3C)C2)C1 (single isomer, unassigned) [Example 141b]"
  log10 of IC50: -0.98
- Molecule: "C=CC(=O)N1CC2(CC(n3nc(N4CCN(C(C)=O)CC4(C)C)c(-c4c(Cl)c(C)cc5[nH]ncc45)c3C)C2)C1 (single isomer, unassigned) [Example 18a]"
  log10 of IC50: 0.79

API: the following record is the query input.
INPUT: Record request: log10 of IC50 value, item C=CC(=O)N1CC2(CC(n3nc(N4CC[C@@H](CN5CCC6(C5)CN(C(C)=O)C6)CC4(C)C)c(-c4c(Cl)c(Cl)cc5[nH]ncc45)c3C)C2)C1 (single isomer, unassigned) [Example 317b]
OUTPUT: -2.15

###

target: KRasG12C (M1-K169, biotinylated on the N-terminus) (Homo sapiens (Human), UniProt P01116, G12C); test: Covalent competition assay: scintillation proximity assay (SPA) quantifying covalent modification of KRASG12C; details: competition with radiolabeled covalent probe (Compound B/Compound A), 2 hours incubation, 10 nM KRasG12C
Experimental Endpoint: pIC50
Field pIC50 (float): negative decimal logarithm of the concentration in molar.

Below, 3 compounds whose answers are already recorded.
- Compound: "C=CC(=O)N1CC2(CC(n3nc(N4CC[C@@H](CN5CC6COCC(C5)O6)CC4(C)C)c(-c4c(Cl)c(Cl)cc5[nH]ncc45)c3C)C2)C1 (single isomer, unassigned) [Example 308a]"
  pIC50: 6.13
- Compound: "C=CC(=O)N1CC2(CC(n3nc(N4CC[C@@H](CN5CC6(CCCO6)C5)CC4(C)C)c(-c4c(Cl)c(Cl)cc5[nH]ncc45)c3C)C2)C1 (single isomer, unassigned) [Example 234a]"
  pIC50: 6.00
- Compound: "C=CC(=O)N1CC2(CC(n3nc(N4CCC5(CN(C)CCO5)CC4(C)C)c(-c4c(Cl)c(C)cc5[nH]ncc45)c3C)C2)C1 (single isomer, unassigned) [Example 207b]"
  pIC50: 7.70

Please turn your attention to the following entry.
INPUT: Data request, read-out pIC50, for C=CC(=O)N1CC2(CC(n3nc(N4CC[C@@H](CN5CCN(CCOC)C(=O)C5)CC4(C)C)c(-c4c(Cl)c(Cl)cc5[nH]ncc45)c3C)C2)C1 (single isomer, unassigned) [Example 256a]
OUTPUT: 5.89

###

target: KRasG12C (M1-K169, biotinylated on the N-terminus) (Homo sapiens (Human), UniProt P01116, G12C); assay: Covalent competition assay: scintillation proximity assay (SPA) quantifying covalent modification of KRASG12C; conditions: competition with radiolabeled covalent probe (Compound B/Compound A), 2 hours incubation, 10 nM KRasG12C
Experimental Endpoint: pIC50
Scale for pIC50: -log10 of concentration given in mol/L; no unit attached.

Example entries begin here.
- Compound: "C=CC(=O)N1CC2(CC(n3nc(N4CCN(CC5COCCOC5)CC45CCC5)c(-c4c(Cl)c(C)cc5[nH]ncc45)c3C)C2)C1 (single isomer, unassigned) [Example 185b]"
  Experimental Endpoint: "pIC50"
  Quantitative Readout: 7.82
- Compound: "C=CC(=O)N1CC2(CC(n3nc(N4CCC(N5C[C@@H]6C[C@H]5CO6)CC4(C)C)c(-c4c(Cl)c(C)cc5[nH]ncc45)c3C)C2)C1 (single isomer, unassigned) [Example 83b]"
  Experimental Endpoint: "pIC50"
  Quantitative Readout: 7.59
- Compound: "C=CC(=O)N1CC2(CC(n3nc(N4CC[C@@H](CN5CC6C5CCN6C5COC5)CC4(C)C)c(-c4c(Cl)c(Cl)cc5[nH]ncc45)c3C)C2)C1 (single isomer, unassigned) [Example 278b]"
  Experimental Endpoint: "pIC50"
  Quantitative Readout: 8.10

The record that follows has no pIC50 shown yet.
INPUT: Item under review: CC#CC(=O)N1CC2(CC(n3nc(N4CCN(C5COC5)CC45CCC5)c(-c4c(Cl)c(C)cc5[nH]ncc45)c3C)C2)C1 (single isomer, unassigned) [Example 78a] . Reported pIC50?
OUTPUT: 5.89

###

target: KRasG12C (M1-K169, biotinylated on the N-terminus) (Homo sapiens (Human), UniProt P01116, G12C); assay: Covalent competition assay: scintillation proximity assay (SPA) quantifying covalent modification of KRASG12C; settings: competition with radiolabeled covalent probe (Compound B/Compound A), 2 hours incubation, 10 nM KRasG12C
pIC50: −log10 of the molar value.
Experimental Endpoint: pIC50

Take a look at these entries with their results.
- Molecule: "C=CC(=O)N1CC2(CC(n3nc(N4CCC(CN5C[C@@H]6OCCO[C@@H]6C5)CC4(C)C)c(-c4c(Cl)c(Cl)cc5[nH]ncc45)c3C)C2)C1 (single isomer, unassigned) [Example 231a]"
  pIC50: "< 5.30"
- Molecule: "C=CC(=O)N1CC2(CC(n3nc(N4CCN(C5COC5)CC45CCC5)c(-c4c(Cl)c(C)cc5[nH]nc(N)c45)c3C)C2)C1 (single isomer, unassigned) [Example 114b]"
  pIC50: 6.47

Continue with the molecule presented below.
INPUT: What pIC50 value was documented for this molecule, C=CC(=O)N1CC2(CC(n3nc(N4CCN(C5CCOCC5)C[C@@]4(C)C(F)F)c(-c4c(Cl)c(Cl)cc5[nH]ncc45)c3C)C2)C1 (single isomer, unassigned) [Example 106a] ?
OUTPUT: < 5.30

###

molecular target: KRasG12C (M1-K169, biotinylated on the N-terminus) (Homo sapiens (Human), UniProt P01116, G12C); assay: Covalent competition assay: scintillation proximity assay (SPA) quantifying covalent modification of KRASG12C; conditions: competition with radiolabeled covalent probe (Compound B/Compound A), 2 hours incubation, 10 nM KRasG12C
Measured pIC50 accompanies every entry in the list below.
Here pIC50 is given on a logarithmic scale as minus log10 of the concentration in mol/L.

- Compound: "C=CC(=O)N1CC2(CC(n3nc(N4CC[C@@H](CN5CCN6CCOC[C@@H]6C5)CC4(C)C)c(-c4c(Cl)c(Cl)cc5[nH]ncc45)c3C)C2)C1 (single isomer, unassigned) [Example 279a]"
  pIC50: 5.42

We next turn to a different compound, shown below.
INPUT: Request the reported pIC50 associated with C=CC(=O)N1CC2(CC(n3nc(N4CCN(c5cnn(C)c5)CC4(C)C)c(-c4c(Cl)c(C)cc5[nH]ncc45)c3C)C2)C1 (single isomer, unassigned) [Example 193b]
OUTPUT: 7.55

###

// IC50 lookup, one value per entry
molecular target: KRasG12C (M1-K169, biotinylated on the N-terminus) (Homo sapiens (Human), UniProt P01116, G12C); assay: Covalent competition assay: scintillation proximity assay (SPA) quantifying covalent modification of KRASG12C; settings: competition with radiolabeled covalent probe (Compound B/Compound A), 2 hours incubation, 10 nM KRasG12C
Hi! Could you send only the number? It should be in nM, unit omitted.

- Molecule: "C=CC(=O)N1CC2(CC(n3nc(N4CCOCC4(C)C)c(-c4c(Cl)c(C)cc5[nH]ncc45)c3C)C2)C1 (single isomer, unassigned) [Example 22b]"
  IC50 / nM: 113

INPUT: For C=CC(=O)N1CC2(CC(n3nc(N4CCc5nn(C)c(=O)cc5C4)c(-c4c(Cl)c(C)cc5[nH]ncc45)c3C)C2)C1 (single isomer, unassigned) [Example 40b] , what is its reported IC50?
OUTPUT: 633

###

biological target: KRasG12C (M1-K169, biotinylated on the N-terminus) (Homo sapiens (Human), UniProt P01116, G12C); experiment: Covalent competition assay: scintillation proximity assay (SPA) quantifying covalent modification of KRASG12C; settings: competition with radiolabeled covalent probe (Compound B/Compound A), 2 hours incubation, 10 nM KRasG12C
Experimental Endpoint: IC50 (nM)
Your answer is read as nM, so omit the unit and give the number.

- Compound: "C=CC(=O)N1CC2(CC(n3nc(N4CC[C@@H](CN5CCN(C(=O)CO)CC5)CC4(C)C)c(-c4c(Cl)c(Cl)cc5[nH]ncc45)c3C)C2)C1 (single isomer, unassigned) [Example 310b]"
  Experimental Endpoint: "IC50"
  U: "nM"
  Quantitative Readout: 7

INPUT: # input compound: C=CC(=O)N1CC2(CC(n3nc(N4CCN(CC(C)(C)O)CC45CCC5)c(-c4c(Cl)c(C)cc5[nH]ncc45)c3C)C2)C1 (single isomer, unassigned) [Example 160b] ; wanted: its IC50
OUTPUT: 27

INPUT: IC50 lookup needed for C=CC(=O)N1CC2(CC(n3nc(N4CCC(CN5C[C@@H]6OCCO[C@@H]6C5)CC4(C)C)c(-c4c(Cl)c(Cl)cc5[nH]ncc45)c3C)C2)C1 (single isomer, unassigned) [Example 231b] , thanks.
OUTPUT: 11

INPUT: Given the entry C=CC(=O)N1C[C@]2(C[C@H](n3nc(N4CC[C@@H](CN5CCN(C6COC6)CC5)CC4(C)C)c(-c4c(Cl)c(Cl)cc5[nH]ncc45)c3C)C2)[C@H]1C (single isomer, unassigned) [Example 201b] , report its measured IC50.
OUTPUT: 17
